Entries annotated with measured IC50 (µg/ml) with constrains
SUBJECT_OF_TEST: HIV Env of isolate 0260.v5.c36 (clade A) (HIV)
PROCEDURE_SUMMARY: cell-based or functional assay
Write the value in µg/mL as a bare number.

Below: 2 binders and their reported IC50 (µg/ml) with constrains.
[[record]]
binder = "ePGDM13 (antibody, V domains shown) VH: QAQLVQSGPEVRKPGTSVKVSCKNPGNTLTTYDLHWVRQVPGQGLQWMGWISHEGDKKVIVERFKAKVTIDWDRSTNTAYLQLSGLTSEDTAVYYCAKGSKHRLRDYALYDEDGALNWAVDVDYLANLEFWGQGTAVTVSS VL: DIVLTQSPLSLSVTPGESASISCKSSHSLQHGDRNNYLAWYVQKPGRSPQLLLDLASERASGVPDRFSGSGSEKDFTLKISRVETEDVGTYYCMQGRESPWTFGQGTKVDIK"
result_number = 0.025

[[record]]
binder = "PGDM1400 (antibody, V domains shown) VH: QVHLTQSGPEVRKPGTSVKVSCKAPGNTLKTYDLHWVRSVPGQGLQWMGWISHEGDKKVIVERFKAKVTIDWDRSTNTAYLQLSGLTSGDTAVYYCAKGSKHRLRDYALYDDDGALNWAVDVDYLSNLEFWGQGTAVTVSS VL: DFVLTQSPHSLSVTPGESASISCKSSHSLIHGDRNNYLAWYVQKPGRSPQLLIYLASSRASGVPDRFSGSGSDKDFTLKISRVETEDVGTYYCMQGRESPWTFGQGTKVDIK"
result_number = 0.035


stdin: Which IC50 (µg/ml) with constrains value is on record for ePGDM5 (antibody, V domains shown) VH: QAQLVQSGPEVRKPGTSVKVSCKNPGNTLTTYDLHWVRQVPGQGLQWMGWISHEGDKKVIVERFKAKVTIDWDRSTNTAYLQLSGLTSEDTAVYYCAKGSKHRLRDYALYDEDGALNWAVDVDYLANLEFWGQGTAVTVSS VL: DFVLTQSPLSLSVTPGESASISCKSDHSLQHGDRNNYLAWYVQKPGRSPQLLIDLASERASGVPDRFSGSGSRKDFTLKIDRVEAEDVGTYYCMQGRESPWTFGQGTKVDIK ?
stdout: 0.021
